System: HFF
Experiment: cell viability relative to DMSO control; higher = less cytotoxic
Details: 1 µM; 72 h
Please provide measured cell viability for the entries that follow.
Provide the reading as a plain figure in %.

Would you kindly share the measured cell viability for `CN1CCN(c2ccc3[nH]c(-c4ccc5[nH]c(-c6ccc(O)cc6)nc5c4)nc3c2)CC1` ?
68.8

Would you kindly share the measured cell viability for `CCCCCc1ccc(C(=O)NCCn2cc(CCCCCc3c[nH]c(N)n3)nn2)cc1` ?
66.1

Would you kindly share the measured cell viability for `Nc1nc2c(ncn2COCCO)c(=O)[nH]1` ?
68.8

Would you kindly share the measured cell viability for `CC(C)C(=O)N[C@H]1[C@H]([C@H](O)[C@H](O)CO)OC(C(=O)O)=C[C@@H]1N=[N+]=[N-]` ?
56.6

Would you kindly share the measured cell viability for `COc1ccc(NS(=O)(=O)c2ccc(Cl)s2)cn1` ?
72.2

Would you kindly share the measured cell viability for `CC(C)Oc1ccc(-c2nc(-c3cccc4c3CC[C@@H]4NCCO)no2)cc1C#N` ?
65.4

Would you kindly share the measured cell viability for `CC[C@H](NC(=O)[C@H](C)NC)C(=O)N1C[C@@H](O)C[C@H]1Cc1c(-c2[nH]c3cc(F)ccc3c2C[C@@H]2C[C@H](O)CN2C(=O)[C@H](CC)NC(=O)[C@H](C)NC)[nH]c2cc(F)ccc12` ?
31.2

Would you kindly share the measured cell viability for `CN(C)CCCOc1ccc(-c2ccc3ncc4c(c3c2)n(C2CCOCC2)c(=O)n4C)cn1` ?
60.6

Would you kindly share the measured cell viability for `C=C(C)n1c(=O)n(Cc2ccccc2C)c2ccccc21` ?
63

Would you kindly share the measured cell viability for `O=C(/C(=C/c1ccc(Cl)cc1Cl)n1ccnc1)c1ccc(Cl)cc1` ?
74.8

Would you kindly share the measured cell viability for `c1cc(CN2CCCNCCNCCCNCC2)ccc1CN1CCCNCCNCCCNCC1` ?
63.9

Would you kindly share the measured cell viability for `Cc1oncc1C(=O)Nc1ccc(C(F)(F)F)cc1` ?
65.7

Would you kindly share the measured cell viability for `O=C(Nc1ccccc1C(=O)O)c1cccc(Oc2ccccc2)c1` ?
67.4

Would you kindly share the measured cell viability for `O=C(N[C@H](CCS)C(=O)N[C@H](Cc1ccccc1)C(=O)O)c1cc2ccccc2[nH]1` ?
67.6

###

System: HFF
Test: cell viability relative to DMSO control; higher = less cytotoxic
Details: 1 µM; 72 h
Please provide measured cell viability for the entries that follow.
Provide the reading as a plain figure in %.

Would you kindly share the measured cell viability for `NC(=O)c1cnc2ccc(S(=O)(=O)c3ccccc3)cc2c1Nc1ccc(O)cc1` ?
59.5

Would you kindly share the measured cell viability for `COc1ccc(C[C@@H](C)[C@@H](C)Cc2ccc(OC)c(OC)c2)cc1OC` ?
65.2

Would you kindly share the measured cell viability for `CCCCCOc1ccc(/C=C2\Oc3c(ccc(O)c3O)C2=O)c(O)c1` ?
69.6

Would you kindly share the measured cell viability for `CO[C@@]1(NC(=O)Cc2cccs2)C(=O)N2C(C(=O)O)=C(COC(N)=O)CS[C@@H]21` ?
63.7

Would you kindly share the measured cell viability for `COC(=O)Nc1nc2cc(Sc3ccccc3)ccc2[nH]1` ?
71.9

Would you kindly share the measured cell viability for `CCCCc1ccc(-c2cc(C(=O)O)cc(-c3ccc(Cl)cc3)n2)cc1` ?
68.9

Would you kindly share the measured cell viability for `COc1ccc(-n2cnc3cc(NCc4ccco4)ccc32)cc1` ?
52

Would you kindly share the measured cell viability for C/C(=N\NC(=O)C1CC1c1ccccc1)c1ccc(NC(=O)c2ccco2)cc1 (centres undefined) ?
60

Would you kindly share the measured cell viability for `CC[C@H]1OC(=O)[C@H](C)[C@@H](O[C@H]2C[C@@](C)(OC)[C@@H](O)[C@H](C)O2)[C@H](C)[C@@H](O[C@@H]2O[C@H](C)C[C@H](N(C)C)[C@H]2O)[C@](C)(O)C[C@@H](C)C(=O)[C@H](C)[C@@H](O)[C@]1(C)O` ?
71.6
